Several reports have described IC50 for Serine/threonine-protein kinase mTOR (Homo sapiens); a selection of those results is presented here.

As a guide, the following entries are already answered.
compound=Nc1ncc(-c2cc(N3CCOCC3)cc(S(=O)(=O)C3CCC(F)(F)CC3)c2)cn1 reportedresult="2460 nM"
compound=CN(C)C(=O)c1ccc(NC(=O)Nc2ccc(-c3nc(N4CCOCC4)c4ccc(-c5ccccn5)cc4n3)cc2F)cc1 reportedresult="50 to 200 nM"

// fetch Serine/threonine-protein kinase mTOR (Homo sapiens) IC50 for Cc1ccc(-c2ccc3c(N4CCOCC4)nc(-c4ccc(NC(=O)Nc5ccc(C(=O)N(C)C)nc5)nc4)nc3c2)o1
50 to 200 nM

// fetch Serine/threonine-protein kinase mTOR (Homo sapiens) IC50 for CN(C)C(=O)c1ccc(NC(=O)Nc2ccc(-c3nc(N4CCOCC4)c4ncc(-c5cnc(N)nc5)cc4n3)cc2F)cc1
< 50 nM

// fetch Serine/threonine-protein kinase mTOR (Homo sapiens) IC50 for Cc1cn(C2CCN(C(=O)c3nnc[nH]3)CC2)c2nc3c(-c4ccc(-c5ccn(C)n5)nc4)cnn3c(N)c12
< 10 nM

----------
Several reports have described IC50 for Serine/threonine-protein kinase mTOR (Homo sapiens, UniProt P42345); a selection of those results is presented here.

As a guide, the following entries are already answered.
molecule=O=c1[nH]c2ncc(-c3ccc(O)cc3)nc2n1CC1CCCCC1 observedproperty=IC50 reportedresult="100 to 5000 nM"
molecule=Nc1ccc(Cn2cnc3c(-c4cccc(O)c4)nc(N4CCOCC4)nc32)cc1 observedproperty=IC50 reportedresult="< 1000 nM"
molecule=COc1ccc(-c2ccc3ncc4c(c3c2)n(-c2cn(C(C)C)nc2C)c(=O)n4C)cn1 observedproperty=IC50 reportedresult="33 nM"
molecule=CC(C)Cn1c(N2CCN(S(C)(=O)=O)CC2)nc2c(N3CCOCC3)nc(-c3cnc(N)nc3)nc21 observedproperty=IC50 reportedresult="10 to 30 nM"
molecule=COc1cc(-c2cccc(NS(=O)(=O)c3c(F)cccc3F)c2F)cc2c(N3CCOCC3)nc(-c3ccc(NC(=O)NCCO)cc3)nc12 observedproperty=IC50 reportedresult="1 to 100 nM"
molecule=CN(C)CC(=O)N1CCN(c2cccc(-c3cnc4c(N5CCOCC5)nc(-c5cnc(N)nc5)nc4c3)c2)CC1 observedproperty=IC50 reportedresult="< 50 nM"
molecule=COc1ccc(-c2ccc3ncc4[nH]c(=O)n(-c5cc(C)nn5C)c4c3n2)cc1OC observedproperty=IC50 reportedresult="10 nM"

// fetch Serine/threonine-protein kinase mTOR (Homo sapiens, UniProt P42345) IC50 for CCn1cc(-n2c(=O)n(C)c3cnc4ccc(-c5cnc(CO)c(NC)c5)cc4c32)c(C)n1
3 nM

----------
Several reports have described pIC50 for Serine/threonine-protein kinase mTOR (Homo sapiens); a selection of those results is presented here.
pIC50: −log10 of the molar value.

compound=CCNC(=O)Nc1ccc(-c2nc(N3CCOC[C@@H]3C)c3c(n2)C(C)(C)S(=O)(=O)C3)c(F)c1 reportedresult="> 7.00"

// fetch Serine/threonine-protein kinase mTOR (Homo sapiens) pIC50 for CCC(=O)N1CCC(n2c(C)nc3cnc4ccc(-c5cnc(N)c(C(F)(F)F)c5)nc4c32)CC1
> 7.00

// fetch Serine/threonine-protein kinase mTOR (Homo sapiens) pIC50 for Cc1n[nH]c2c1c(CC1CCC(C(=O)O)CC1)nc1c(-c3ccc(-c4ccccc4)nc3)cnn12 (stereo not shown)
8.00 to 9.00

// fetch Serine/threonine-protein kinase mTOR (Homo sapiens) pIC50 for Cc1n[nH]c2c1c(C1CCS(=O)(=O)CC1)nc1c(-c3ccc(-c4cccnc4)nc3)cnn12
8.00 to 9.00

// fetch Serine/threonine-protein kinase mTOR (Homo sapiens) pIC50 for Nc1ncc(-c2nc(N3CCOCC3)c3ncc(-c4cccc(NC(=O)c5cncc(F)c5)c4)cc3n2)cn1
> 7.30

// fetch Serine/threonine-protein kinase mTOR (Homo sapiens) pIC50 for Nc1ccc(-c2nc(N3CCOCC3)nc3c2ncn3C2CCCC2)cn1
> 6.00

// fetch Serine/threonine-protein kinase mTOR (Homo sapiens) pIC50 for Nc1cc(F)c(-c2nc(N3CCOCC3)c3nc(-c4cccc(NS(=O)(=O)CCCF)c4F)ccc3n2)cn1
7.00 to 9.00

// fetch Serine/threonine-protein kinase mTOR (Homo sapiens) pIC50 for CCn1c(=O)n(-c2cn(C)nc2C)c2c3nc(-c4ccc(OC)c(OC)c4)ccc3ncc21
6.98

// fetch Serine/threonine-protein kinase mTOR (Homo sapiens) pIC50 for Cc1cc(-n2c(=O)n(C)c3cnc4ccc(-c5ccc(C(F)(F)F)nc5)cc4c32)n(C)n1
6.17

// fetch Serine/threonine-protein kinase mTOR (Homo sapiens) pIC50 for Cc1n[nH]c2c1c(CC1CCC(C)(C(=O)O)CC1)nc1c(-c3ccc(-c4cnn(C)c4)nc3)cnn12 (stereo not shown)
8.00 to 9.00

// fetch Serine/threonine-protein kinase mTOR (Homo sapiens) pIC50 for CC(=O)N1CCN(c2nc3c(N4CCOCC4)nc(-c4cnc(N)nc4)nc3n2CC(C)C)C[C@H]1C
7.52 to 8.00

----------
Several reports have described IC50 for Serine/threonine-protein kinase mTOR (Homo sapiens, UniProt P42345); a selection of those results is presented here.

compound=CNc1ccc(-c2nc(N3CCOCC3)c3cc(-c4cccc(NS(=O)(=O)CCCF)c4F)cc(OC)c3n2)cn1 reportedresult="1 to 100 nM"
compound=COCCOc1cc(-c2cccc(NS(=O)(=O)CCCF)c2F)cc2c(N3CCOCC3)nc(-c3ccc(N)nc3)nc12 reportedresult="1 to 100 nM"
compound=COc1ncc(-c2ccc3c(N4CCOCC4)nc(-c4ccc(NC(=O)Nc5ccc(C(=O)N(C)C)cc5)c(F)c4)nc3c2)cn1 reportedresult="< 50 nM"
compound="CC1CN(c2nc(-c3ccc(NC(=O)Nc4ccc(C(=O)N(C)C)cc4)c(F)c3)nc3cc(-c4cncnc4)ccc23)CCO1 (stereo not drawn)" reportedresult="< 50 nM"
compound=COc1ccc(-c2ccc3c(N4CCOCC4)nc(-c4ccc(NC(=O)Nc5ccc(C(=O)N(C)C)cc5)cc4)nc3c2)cn1 reportedresult="< 50 nM"
compound=COc1ccc(-c2ccc3ncc4c(c3c2)n(-c2cn(C)nc2C)c(=O)n4C)cc1OC reportedresult="6 nM"
compound=Cn1nccc1-n1c(=O)n(C)c2cnc3ccc(-c4ccc(C(F)(F)F)nc4)cc3c21 reportedresult="734 nM"
compound="CC1c2c(nc(-c3ccc(NC(=O)NC4CC4)cc3)nc2N2CC3CCC(C2)O3)CS1(=O)=O (stereo not drawn)" reportedresult="< 100 nM"

// fetch Serine/threonine-protein kinase mTOR (Homo sapiens, UniProt P42345) IC50 for Nc1ncc(-c2cc(N3CCOCC3)cc(S(=O)(=O)c3ccc(OC(F)(F)F)cc3)c2)cn1
22000 nM

// fetch Serine/threonine-protein kinase mTOR (Homo sapiens, UniProt P42345) IC50 for Nc1ncc(-c2nc(N3CCOCC3)c3ncc(-c4cccc(NC(=O)N5CCOCC5)c4)cc3n2)cn1
< 50 nM

// fetch Serine/threonine-protein kinase mTOR (Homo sapiens, UniProt P42345) IC50 for CCn1nccc1-n1c(=O)n(C)c2cnc3ccc(-c4ccc(N(C)C)nc4)cc3c21
251 nM

// fetch Serine/threonine-protein kinase mTOR (Homo sapiens, UniProt P42345) IC50 for CN(C)C(=O)c1ccc(NC(=O)Nc2ccc(-c3nc(N4CCOCC4)c4cccc(-c5cccnc5F)c4n3)cc2)cc1
< 50 nM

// fetch Serine/threonine-protein kinase mTOR (Homo sapiens, UniProt P42345) IC50 for CC(O)c1ccc(-c2ccc3c(N4CCOCC4)nc(-c4ccc(NC(=O)Nc5ccc(C(=O)N(C)C)cc5)cc4)nc3c2)o1 (stereo not drawn)
< 50 nM

// fetch Serine/threonine-protein kinase mTOR (Homo sapiens, UniProt P42345) IC50 for Cc1nn(C)c(C)c1-n1c(=O)n(C)c2cnc3ccc(-c4ccc(CO)nc4)cc3c21
666 nM

// fetch Serine/threonine-protein kinase mTOR (Homo sapiens, UniProt P42345) IC50 for COc1cccc(-c2ccccc2CC(C)(C)Nc2nc(N3CCOCC3)nc(-n3c(C(F)F)nc4ccccc43)n2)c1
> 500 nM

----------
Several reports have described pIC50 for Serine/threonine-protein kinase mTOR (Homo sapiens); a selection of those results is presented here.
pIC50: −log10 of the molar value.

compound=CCCC(=O)N1CCC(n2cnc3c(-c4cccc5[nH]ccc45)nc(N4CCOCC4)nc32)CC1 observedproperty=pIC50 reportedresult="> 6.00"
compound=CCCCS(=O)(=O)Nc1cccc(-c2cc(OC)c3nc(-c4cnc(N)nc4)nc(N4CCOCC4)c3c2)c1F observedproperty=pIC50 reportedresult="6.00 to 7.00"

Endpoint output: pIC50 of O=C(O)c1c[nH]c2ncc(-c3cnc4[nH]c(=O)n(CC5CCOCC5)c4c3)cc12 . Value?
> 7.30

Endpoint output: pIC50 of COc1ccc(C(C)n2c(=O)[nH]c3ncc(-c4cccc5ncccc45)nc32)cc1 (stereo not shown) . Value?
< 4.52

Endpoint output: pIC50 of CN(C)C(=O)c1ccc(NC(=O)Nc2ccc(-c3nc(N4CCOCC4)c4ncc(-c5cncnc5)cc4n3)cc2F)cc1 . Value?
> 7.30

Endpoint output: pIC50 of CO[C@@H]1CC[C@H](Cn2c(=O)[nH]c3ncc(-c4cnc5[nH]cc(C)c5c4C)cc32)OC1 . Value?
> 7.30

Endpoint output: pIC50 of Cc1nn(C(C)C)cc1-n1c(=O)n(C)c2cnc3ccc(-c4cnc(F)c(N)c4)cc3c21 . Value?
7.10
